All values here come from the supplement of paper PMC11246515.

assay: total protein half-life in vivo (active degradation + dilution); higher = more stable protein; conditions: wild type E. coli NCM3722; growth: P-lim chemostat; doubling time 6 h
propertyName: total protein half-life in vivo (h)

MNTVCTHCQAINRIPDDRIEDAAKCGRCGHDLFDGEVINATGETLDKLLKDDLPVVIDFWAPWCGPCRNFAPIFEDVAQERSGKVRFVKVNTEAERELSSRFGIRSIPTIMIFKNGQVVDMLNGAVPKAPFDSWLNESL [P0AGG4] = 2.24
MNMKLKTLFAAAFAVVGFCSTASAVTYPLPTDGSRLVGQNQVITIPEGNTQPLEYFAAEYQMGLSNMMEANPGVDTFLPKGGTVLNIPQQLILPDTVHEGIVINSAEMRLYYYPKGTNTVIVLPIGIGQLGKDTPINWTTKVERKKAGPTWTPTAKMHAEYRAAGEPLPAVVPAGPDNPMGLYALYIGRLYAIHGTNANFGIGLRVSHGCVRLRNEDIKFLFEKVPVGTRVQFIDEPVKATTEPDGSRYIEVHNPLSTTEAQFEGQEIVPITLTKSVQTVTGQPDVDQVVLDEAIKNRSGMPVRLN [P0AAX8] = 5.61
MSSYANHQALAGLTLGKSTDYRDTYDASLLQGVPRSLNRDPLGLKADNLPFHGTDIWTLYELSWLNAKGLPQVAVGHVELDYTSVNLIESKSFKLYLNSFNQTRFNNWDEVRQTLERDLSTCAQGKISVALYRLDELEGQPIGHFNGTCIDDQDITIDNYEFTTDYLENATCGEKVVEETLVSHLLKSNCLITHQPDWGSLQIQYRGRQIDREKLLRYLVSFRHHNEFHEQCVERIFNDLLRFCQPEKLSVYARYTRRGGLDINPWRSNSDFVPSTTRLVRQ = 5.62
